Give measured Ki for each item. Keep answers brief.
Biological target: T1, human β-factor XIIa (human), P00748
T1 chain 1: NGPLSCGQR
T1 chain 2: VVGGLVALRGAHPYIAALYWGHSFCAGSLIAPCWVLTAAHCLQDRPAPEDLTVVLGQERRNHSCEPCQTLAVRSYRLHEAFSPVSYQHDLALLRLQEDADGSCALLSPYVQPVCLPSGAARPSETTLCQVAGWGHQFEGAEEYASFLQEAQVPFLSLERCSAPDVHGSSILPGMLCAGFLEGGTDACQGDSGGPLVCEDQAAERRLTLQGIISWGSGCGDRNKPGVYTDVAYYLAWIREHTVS
Test: competitive protease inhibition assay, 0.5 nM FXIIa, Boc-QGR-MCA substrate
Ends that are not written are not given here.
Your answer is read as pM, so omit the unit and give the number.

Respond only with Ki recorded for GGICPRIGRLCERDSDCPGACICRATRFCGSGSD (not fully specified (bridges); cysteine pairing not given here) [Cyclic [R12E]MCoFx7]
130

Respond only with Ki recorded for GGICPRIGRLCRRDSDCPGACICRKTRFCGSGSD (not fully specified (bridges); cysteine pairing not given here) [Cyclic [A25K]MCoFx7]
46

Respond only with Ki recorded for GGICPRIGRLCRRDSDCPGACICRPTRFCGSGSD (not fully specified (bridges); cysteine pairing not given here) [Cyclic [A25P]MCoFx7]
93

Respond only with Ki recorded for GGICPRIGRLCRRDSDCPGACICRATGFCGSGSD (not fully specified (bridges); cysteine pairing not given here) [Cyclic [R27G]MCoFx7]
210

Respond only with Ki recorded for GGICPRIGRLCRRDSDCPGACICRATRFCGSGSP (not fully specified (bridges); cysteine pairing not given here) [Cyclic [D34P]MCoFx7]
91

Respond only with Ki recorded for GGICPRIGRLCVRDSDCPGACICRATRFCGSGSD (not fully specified (bridges); cysteine pairing not given here) [Cyclic [R12V]MCoFx7]
69

Respond only with Ki recorded for GGICPRIGRLCRRDSDCPGACICRATRFCGSGSD (modifications not checked) [Cyclic MCoFx7]
64

Respond only with Ki recorded for GGICPRIGRLCRKDSDCPGACICRATRFCGSGSD (not fully specified (bridges); cysteine pairing not given here) [Cyclic [R13K]MCoFx7]
68
